Origin of values: ChEMBL document CHEMBL5058577

Give Population Fragmented Nuclei (%) for every item shown.
tested on: HEK-293T; experiment: Multiplex assay against HEK293T; format: toxicity, cell-based; conditions: human, 48 h, 10 µM, compound concentration 10 uM, replicate 1
Response body: numeric value in %, unit text excluded.

(Q) Write down the reported Population Fragmented Nuclei (%) of COc1ccc2[nH]c(I)c(CCNC(C)=O)c2c1 [IODOMELATONIN] , test system: HEK-293T.
(A) 16

(Q) And what about the molecule CN(C)C/C=C/C(=O)Nc1ccc(C(=O)N2CCCC(Nc3ncc(Cl)c(-c4c[nH]c5ccccc45)n3)C2)cc1 (stereo not given) ?
(A) 62

(Q) Record: N[C@](CC1c2ccccc2Oc2ccccc21)(C(=O)O)[C@H]1C[C@@H]1C(=O)O
(A) 13

(Q) # repeat for OCCCNc1cc(-c2ccnc(Nc3cccc(Cl)c3)n2)ccn1
(A) 16

(Q) Also, O=c1ccc2ccc(OCCCCN3CCN(c4cccc5sccc45)CC3)cc2[nH]1 [BREXPIPRAZOLE] please.
(A) 19

* * *

system: Fibroblast; assay: Multiplex assay against human fibroblast; type: toxicity, cell-based; conditions: 24 h, 1 µM, compound concentration 1 uM, replicate 2
I'd be grateful if you could share measured Population Mitotic Cells (%) for these entries.
Could you give me the number in %? Just the number is fine.

(Q) Any idea what its Population Mitotic Cells (%) is? The molecule is Nc1nc(CC(=O)Nc2ccc(CCNC[C@H](O)c3ccccc3)cc2)cs1
(A) 41

(Q) Param item: CSc1nc(NC2CCCC2)c([N+](=O)[O-])c(NC2CCCC2)n1
(A) 67

(Q) Now this one: CCn1c(-c2nc3cc(C(=O)N4CCCC(N)C4)ccc3n2C)cc2ccccc21.Cl (stereo not given)
(A) 44

(Q) Next molecule up: CCc1nn2c(C)cc(C)nc2c1Cc1ccc(-c2nnc(C3CCNCC3)o2)cc1
(A) 43

(Q) Proceed to O=c1ccc2ccc(OCCCCN3CCN(c4cccc5sccc45)CC3)cc2[nH]1
(A) 66

* * *

system: U2OS; assay: Multiplex assay against U2OS; type: toxicity, cell-based; settings: human, 24 h, 1 µM, compound concentration 1 uM, replicate 1
READOUT KIND: Population Mitotic Cells (%)
Only the number, expressed in %, is required.

(Q) Could you share which Population Mitotic Cells (%) value was measured for O=c1nc2[nH]c3ccccc3nc-2c(=O)[nH]1 [ALLOXAZINE] ?
(A) 26

(Q) Next compound: CC(C)C[C@H](CO)Nc1nc(S[C@@H](C)c2ccccc2)nc2nc(N)sc12 [AZD-8797]
(A) 18

(Q) Another compound: COc1cc(Nc2ncc3c(n2)-c2ccc(Cl)cc2C(c2c(F)cccc2OC)=NC3)ccc1C(=O)O [ALISERTIB]
(A) 21

(Q) What would you report for COC(c1ccccc1)(c1ccccc1)[C@H](Oc1nc(C)cc(C)n1)C(=O)O [AMBRISENTAN] ?
(A) 4

(Q) Quick one: Cl.Cl.OCCOCCN1CCN(C(c2ccccc2)c2ccc(Cl)cc2)CC1 (configuration not stated) [HYDROXYZINE HYDROCHLORIDE]
(A) 4

(Q) Another compound to check: CN1CCN(c2ccc(Nc3c4ccccc4nc4ccccc34)cc2)CC1.Cl.Cl.O
(A) 7

(Q) Try this compound too: COCCCN1CCC(NC(=O)c2cc(Cl)c(N)c3c2OCC3)CC1 [PRUCALOPRIDE]
(A) 20
